- test system: GABA-A receptor; anion channel
- assay name: Displacement of [3H]diazepam from rat brain GABA-A benzodiazepine receptor
assay metric: IC50

In [3]: df
Out[3]:
                              smiles_string    result
0  O=C1Nc2ccc(Cl)cc2C(c2ccccc2)=N[C@@H]1Cc1c[nH]c2ccccc12  > 100 µM
1  O=C1Nc2ccc(Cl)cc2C(c2ccccc2Cl)=N[C@@H]1Cc1c[nH]c2ccccc12  > 180 µM
2  O=C1Nc2ccccc2C(c2ccccc2F)=N[C@@H]1Cc1c[nH]c2ccccc12  > 100 µM

For each entry beneath this line, provide reported IC50.
1. O=C1Nc2ccccc2C(c2ccccc2)=N[C@@H]1Cc1c[nH]c2ccccc12
2. CC1=N[C@H](Cc2c[nH]c3ccccc23)C(=O)Nc2ccccc21
3. O=C(O)CN1C(=O)[C@@H](Cc2c[nH]c3ccccc23)N=C(c2ccccc2F)c2ccccc21

Out:
["> 100 µM", "> 100 µM", "> 100 µM"]

Hello, the source for this data is ChEMBL document CHEMBL1123786, in case you need it.
